measurementProtocol: Antiproliferative activity against human MDA-MB-231 cells after 72 hrs by MTT assay
Format: functional, cell-based
studyConditions: MDA-MB-231, 72 h
resultType: pIC50
Schema: pIC50 number; meaning minus log10 of the concentration expressed in molar units.

Returns the measured pIC50 for the input compound. Input: O=C(O)c1ccc(OCCOc2ccc3cc2COC/C=C/COCc2cccc(c2)-c2ccnc(n2)N3)cc1
4.27

Returns the measured pIC50 for the input compound. Input: O=C(O)c1cccc(NCCOc2ccc3cc2COC/C=C/COCc2cccc(c2)-c2ccnc(n2)N3)c1
4.67

Returns the measured pIC50 for the input compound. Input: O=C(O)CCCCCOc1ccc2cc1COC/C=C/COCc1cccc(c1)-c1ccnc(n1)N2
4.70

Returns the measured pIC50 for the input compound. Input: O=C(CCCCCOc1ccc2cc1COC/C=C/COCc1cccc(c1)-c1ccnc(n1)N2)NO
5.09

Returns the measured pIC50 for the input compound. Input: O=C(CCCCCCOc1ccc2cc1COC/C=C/COCc1cccc(c1)-c1ccnc(n1)N2)NO
5.84

Returns the measured pIC50 for the input compound. Input: C1=N/C2=N/c3ccc(OCCN4CCCC4)c(c3)COC/C=C/COCc3cccc(c3)C(=C1)N2 [PACRITINIB]
5.61

Returns the measured pIC50 for the input compound. Input: O=C(CCCCCCCOc1ccc2cc1COC/C=C/COCc1cccc(c1)-c1ccnc(n1)N2)NO
5.19

Returns the measured pIC50 for the input compound. Input: O=C(O)C1CCN(CCOc2ccc3cc2COC/C=C/COCc2cccc(c2)-c2ccnc(n2)N3)CC1
4.97

Returns the measured pIC50 for the input compound. Input: O=C(O)CCCOc1ccc2cc1COC/C=C/COCc1cccc(c1)-c1ccnc(n1)N2
4.27

Returns the measured pIC50 for the input compound. Input: O=C(CCCOc1ccc2cc1COC/C=C/COCc1cccc(c1)-c1ccnc(n1)N2)NO
5.23

Returns the measured pIC50 for the input compound. Input: O=C(O)c1ccc(NCCOc2ccc3cc2COC/C=C/COCc2cccc(c2)-c2ccnc(n2)N3)cc1
4.34

Returns the measured pIC50 for the input compound. Input: O=C(CCCCCCC(=O)Nc1ccc(NCCOc2ccc3cc2COC/C=C/COCc2cccc(c2)-c2ccnc(n2)N3)cc1)NO
5.46

Returns the measured pIC50 for the input compound. Input: O=C(CCCCOc1ccc2cc1COC/C=C/COCc1cccc(c1)-c1ccnc(n1)N2)NO
4.90

Returns the measured pIC50 for the input compound. Input: O=C(O)CCCCOc1ccc2cc1COC/C=C/COCc1cccc(c1)-c1ccnc(n1)N2
4.59

Returns the measured pIC50 for the input compound. Input: O=C(NO)c1ccc(NCCOc2ccc3cc2COC/C=C/COCc2cccc(c2)-c2ccnc(n2)N3)cc1
5.06

Returns the measured pIC50 for the input compound. Input: CN1CCc2c(c3ccccc3n2Cc2ccc(C(=O)NO)cc2)C1 [TUBASTATIN A]
4.98

Returns the measured pIC50 for the input compound. Input: O=C(O)CCCCCCCOc1ccc2cc1COC/C=C/COCc1cccc(c1)-c1ccnc(n1)N2
4.77

Returns the measured pIC50 for the input compound. Input: O=C(NO)C1CCN(CCOc2ccc3cc2COC/C=C/COCc2cccc(c2)-c2ccnc(n2)N3)CC1
5.47

Returns the measured pIC50 for the input compound. Input: O=C(O)CCCCCCOc1ccc2cc1COC/C=C/COCc1cccc(c1)-c1ccnc(n1)N2
4.92

Measured values drawn from ChEMBL document CHEMBL3877241 for this set.
